Target: T1, TNFR2 on human K562 chronic myeloid leukemia cells and on primary human Treg cells (human, UniProt P20333 23-461)
T1 construct: whole, on cells; also called K562 cells
T1 sequence (looked up): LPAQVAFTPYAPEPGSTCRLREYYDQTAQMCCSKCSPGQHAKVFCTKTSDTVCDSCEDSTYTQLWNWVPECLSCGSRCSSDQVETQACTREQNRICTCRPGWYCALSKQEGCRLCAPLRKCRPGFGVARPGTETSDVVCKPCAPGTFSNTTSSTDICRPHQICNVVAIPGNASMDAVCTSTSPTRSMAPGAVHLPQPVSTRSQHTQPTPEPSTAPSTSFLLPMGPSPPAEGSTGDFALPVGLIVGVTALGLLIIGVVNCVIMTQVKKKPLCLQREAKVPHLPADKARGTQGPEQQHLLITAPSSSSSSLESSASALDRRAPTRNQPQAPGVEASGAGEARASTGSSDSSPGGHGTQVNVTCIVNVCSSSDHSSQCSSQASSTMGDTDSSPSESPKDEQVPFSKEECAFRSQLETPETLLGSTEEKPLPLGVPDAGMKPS
Test: flow cytometry on primary human Treg cells, MFI(FL2); unit taken from the axis Conc log(nM)
Quantity: pEC50
pEC50 is defined as minus the log10 of a concentration measured in mol/L.

Query :: What value of pEC50 has been recorded for this entry: humanized antibody hz69B1.20 (antibody, human IgG1, kappa, V domains shown) VH: QIQLVQSGSELKKPGASVKVSCKASGYTFTDYSMNWVRQAPGQGLEWMGWLNTETGEPIYADDFKGRFVFSLDTSVSTAYLQISSLKAEDTAVYFCAREAIYYGTSYVLDYWGQGTLVTVSS VL: DIVLTQSPASLAVSPGQRATITCRASESVEYYGTNFMQWYQQKPGQPPKLLIYSASNVESGVPARFSGSGSGTDFTLTINPVEAQDTANYFCQQSRKDPSTFGQGTKLEIKR
Result :: 10.52
